Test: Phase I open-label single-dose crossover oral bioavailability / PK test of bedoradrine sulfate in healthy volunteers
Format: in vivo, human
Details: both sexes, human, in vivo, iv, 300 ug, AUC 0-24 h, range
Structures can show the parent of a compound that is named as a salt.
quantityName: AUC(0-t)

compound | endpointResult
CN(C)C(=O)COc1ccc2c(c1)C[C@@H](NC[C@H](O)c1ccc(O)c(CCO)c1)CC2 [MN-221, bedoradrine sulfate] | 9.31 to 15.5 ng·h/mL

* * *

Test: Phase I open-label single-dose crossover oral bioavailability / PK test of bedoradrine sulfate in healthy volunteers
Format: in vivo, human
Settings: both sexes, human, in vivo, iv, 300 ug, Cmax, range
Where a name gives a salt, the structure may show the parent alone.
quantityName: Cmax

molecule | quantityName | endpointResult
CN(C)C(=O)COc1ccc2c(c1)C[C@@H](NC[C@H](O)c1ccc(O)c(CCO)c1)CC2 [MN-221, bedoradrine sulfate] | Cmax | 6.76 to 14.8 ng/mL

The measured values listed here are drawn from patent US20120295982A1.
